List of kon values.
# tgt: T1, human Trophoblast cell surface antigen 2 (TROP2) (human, UniProt P09758 27-274, limits assumed)
# T1 construct: Analyte in the SPR experiments and immunogen; also called human TROP2
# T1 sequence: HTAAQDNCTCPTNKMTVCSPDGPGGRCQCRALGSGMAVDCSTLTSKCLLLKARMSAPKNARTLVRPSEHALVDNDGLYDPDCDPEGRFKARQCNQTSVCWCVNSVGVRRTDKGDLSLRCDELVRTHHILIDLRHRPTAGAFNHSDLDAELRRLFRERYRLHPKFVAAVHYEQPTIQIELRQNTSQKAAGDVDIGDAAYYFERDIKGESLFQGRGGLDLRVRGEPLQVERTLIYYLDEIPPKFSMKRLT
# assay.summary: SPR affinity ranking, human TROP2
value.type: kon (M⁻¹ s⁻¹)

INSERT INTO results (binder, value_type, reading_unit, value) VALUES
  ('HC5/LC1 (antibody, human IgG1, kappa, V domains shown, Humanized anti-TROP2 antibody) VH: EVQLVQSGAEVKKPGESLKISCKGSGYTFTDYSINWVRQMPGKGLEWMGVISTYYGDASYNQKFKGQVTISADKSISTAYLQWSSLKASDTAMYYCARYGDGYNQFDYWGQGTLVTVSS VL: DIVMTQSPDSLAVSLGERATINCRVSESVDSYGNNFMHWYQQKPGQPPKLLIYRASNLESGVPDRFSGSGSGTDFTLTISSLQAEDVAVYYCQQSYEDPYTFGQGTKLEIKR', 'kon', 'M⁻¹ s⁻¹', '1.6e+06'),
  ('HC4/LC2 (antibody, human IgG1, kappa, V domains shown, Humanized anti-TROP2 antibody) VH: QVQLVQSGAEVKKPGSSVKVSCKASGYTFTDYSINWVRQAPGQGLEWMGVISTYYGDASYNQKFKGRVTITADESTSTAYMELSSLRSEDTAVYYCARYGDGYNQFDYWGQGTLVTVSS VL: DVVMTQSPLSLPVTLGQPASISCRVSESVDSYGNNFMHWFQQRPGQSPRRLIYRASNLESGVPDRFSGSGSGTDFTLKISRVEAEDVGVYYCQQSYEDPYTFGGGTKVEIKR', 'kon', 'M⁻¹ s⁻¹', 184000),
  ('HC1/LC4 (antibody, human IgG1, kappa, V domains shown, Humanized anti-TROP2 antibody) VH: QVQLVQSGAEVKKPGASVKVSCKASGYTFTDYSINWVRQAPGQGLEWMGVISTYYGDASYNQKFKGRVTMTTDTSTSTAYMELRSLRSDDTAVYYCARYGDGYNQFDYWGQGTMVTVSS VL: EIVLTQSPATLSLSPGERATLSCRVSESVDSYGNNFMHWYQQKPGQAPRLLIYRASNLESGIPARFSGSGSGTDFTLTISSLEPEDFAVYYCQQSYEDPYTFGGGTKVEIKR', 'kon', 'M⁻¹ s⁻¹', '1.38e+06'),
  ('HC5/LC4 (antibody, human IgG1, kappa, V domains shown, Humanized anti-TROP2 antibody) VH: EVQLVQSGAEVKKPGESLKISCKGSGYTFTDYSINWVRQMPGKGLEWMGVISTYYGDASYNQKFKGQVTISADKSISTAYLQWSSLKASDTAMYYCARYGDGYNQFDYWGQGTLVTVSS VL: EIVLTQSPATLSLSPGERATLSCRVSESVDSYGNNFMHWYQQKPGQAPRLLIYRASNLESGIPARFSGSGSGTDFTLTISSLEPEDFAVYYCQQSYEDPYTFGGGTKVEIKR', 'kon', 'M⁻¹ s⁻¹', '1.36e+06'),
  ('HC1/LC3 (antibody, human IgG1, kappa, V domains shown, Humanized anti-TROP2 antibody) VH: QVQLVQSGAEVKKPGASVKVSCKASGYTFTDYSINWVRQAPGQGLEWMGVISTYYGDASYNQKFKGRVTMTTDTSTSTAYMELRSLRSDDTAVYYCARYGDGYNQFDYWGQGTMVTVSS VL: DIVMTQSPLSLPVTPGEPASISCRVSESVDSYGNNFMHWYLQKPGQSPQLLIYRASNLESGVPDRFSGSGSGTDFTLKISRVEAEDVGVYYCQQSYEDPYTFGGGTKVEIKR', 'kon', 'M⁻¹ s⁻¹', '1.62e+06');
